log10 of IC50 values for UniProt P25099 compiled from several publications are listed below.
Sequence (P25099 whole entry): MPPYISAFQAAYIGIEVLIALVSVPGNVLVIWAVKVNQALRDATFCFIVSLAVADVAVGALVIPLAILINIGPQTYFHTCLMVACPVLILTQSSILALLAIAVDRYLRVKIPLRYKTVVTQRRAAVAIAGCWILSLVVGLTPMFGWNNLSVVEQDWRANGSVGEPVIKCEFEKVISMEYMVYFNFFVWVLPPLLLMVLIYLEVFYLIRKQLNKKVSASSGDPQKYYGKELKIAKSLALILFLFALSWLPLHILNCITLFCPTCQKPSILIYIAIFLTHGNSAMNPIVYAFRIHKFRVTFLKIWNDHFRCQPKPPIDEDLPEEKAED
property.label: log10 of IC50 (log10 of the value in nM)

molecule	log10 of IC50
Cc1ccccc1Nc1ncnc2c1ncn2C1O[C@H](CO)[C@@H](O)[C@H]1O (some centres undefined)	0.95
OC[C@H]1OC(n2cnc3c(Nc4ccc(Cl)cc4)ncnc32)[C@H](O)[C@@H]1O (some centres undefined)	0.34
CCn1c(=O)c2[nH]c(-c3ccc(S(=O)(=O)N4CCSCC4)cc3)nc2n(CC)c1=O	2.81
CC(C)[C@H]1/C=C/[C@](C)(O)C/C=C/[C@](C)(O)CC[C@@H]2O[C@@]2(C)CC1	5.48
OC[C@H]1OC(n2cnc3c(Nc4ccc(F)cc4)ncnc32)[C@H](O)[C@@H]1O (some centres undefined)	0.30
COc1ccccc1Nc1ncnc2c1ncn2C1O[C@H](CO)[C@@H](O)[C@H]1O (some centres undefined)	1.93
CCn1c(=O)c2nc(-c3cccc(S(=O)(=O)NCCN(C)C)c3)[nH]c2n(CC)c1=O	2.74
OC[C@H]1OC(n2cnc3c(NCC4CCCCC4)ncnc32)[C@H](O)[C@@H]1O (some centres undefined)	1.60
CCn1c(=O)c2[nH]c(-c3ccc(S(N)(=O)=O)cc3)nc2n(CC)c1=O	1.67
